system: Rattus norvegicus; assay: Cholesterol-lowering activity in propylthiouracil-induced hypercholesterolemic rat model assessed as change in plasma cholesterol at 10 mg/kg administered intragastrically relative to control; format: functional; conditions: route intragastric
measurement-type: Activity (%)

• CC1(C)CCc2c1ccc1c2CCc2cc(OCCN3CCCC3)ccc2-1 = -17
• CC1(C)CCc2c1ccc1c2CCc2cc(O)ccc2-1 = -16
• CN1C(=O)[C@@H]2CC[C@@H]1[C@@H](OC(=O)C(C)(C)Oc1ccc3c(c1)CCc1c-3ccc3c1CCC3(C)C)C2 = -4
• CCOC(=O)C(C)(C)Oc1ccc2c(c1)CCc1c-2ccc2c1CCC2(C)C = -9
• CCOC(=O)COc1ccc2c(c1)CCc1c-2ccc2c1CCC2(C)C = 8
• CC(C)(CO)Oc1ccc2c(c1)CCc1c-2ccc2c1CCC2(C)C = -25
• COc1ccc2c(c1)CCc1c-2ccc2c1CCC2(C)C = 1
• CC(C)(COC(=O)CCC(=O)O)Oc1ccc2c(c1)CCc1c-2ccc2c1CCC2(C)C = -7
